- assay-system: YhOCT3 (Homo sapiens, UniProt O75751)
- Sequence (O75751 1-556): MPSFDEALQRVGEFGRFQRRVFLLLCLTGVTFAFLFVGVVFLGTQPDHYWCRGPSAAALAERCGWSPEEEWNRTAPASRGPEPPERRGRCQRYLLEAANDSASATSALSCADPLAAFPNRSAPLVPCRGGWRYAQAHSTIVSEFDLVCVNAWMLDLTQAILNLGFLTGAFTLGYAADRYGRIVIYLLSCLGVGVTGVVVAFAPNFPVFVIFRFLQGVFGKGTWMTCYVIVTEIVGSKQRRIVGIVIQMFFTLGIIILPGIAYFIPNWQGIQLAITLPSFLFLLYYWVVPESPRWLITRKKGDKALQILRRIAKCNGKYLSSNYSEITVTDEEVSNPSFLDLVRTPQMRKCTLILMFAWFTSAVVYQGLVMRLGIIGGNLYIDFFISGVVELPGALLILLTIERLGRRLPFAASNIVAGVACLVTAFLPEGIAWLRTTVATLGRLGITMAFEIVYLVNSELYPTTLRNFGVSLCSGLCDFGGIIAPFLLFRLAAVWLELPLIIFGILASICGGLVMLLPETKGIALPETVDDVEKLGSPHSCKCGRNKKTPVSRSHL
- method-description: radioligand uptake inhibition assay ([3H]MPP+)
- experimental-setup: HEK293 stably expressing YhOCT3; 50 nM [3H]MPP+; mean and SD, N = 3-6; read-out: IC50, uptake inhibition at OCT3 (YhOCT3)
quantity-kind: IC50 (nM)

a = CCN(CC)c1ccc(-c2cc[n+]3c(-c4ccccc4)c(N4CCCC4)n(CCCCCCC(=O)NCc4ccc5c(c4)CO[C@@]5(CCCN(C)C)c4ccc(F)cc4)c3c2)cc1 [PYR-C6-CIT, PyrAte-C6-(S)-citalopram]
b = CCN(CC)c1ccc(-c2cc[n+]3c(-c4ccccc4)c(N4CCCC4)n(CCCC(=O)NCc4ccc5c(c4)CO[C@@]5(CCCN(C)C)c4ccc(F)cc4)c3c2)cc1 [PYR-C3-CIT, PyrAte-C3-(S)-citalopram]
Inquiry: Sort a and b by IC50 descending and give the first. Write down the label of the entry you select.
Reply text: b
(b: 3320 nM, a: 2100 nM)

----------
- assay-system: YhSERT (Homo sapiens)
- Sequence (P31645 whole entry): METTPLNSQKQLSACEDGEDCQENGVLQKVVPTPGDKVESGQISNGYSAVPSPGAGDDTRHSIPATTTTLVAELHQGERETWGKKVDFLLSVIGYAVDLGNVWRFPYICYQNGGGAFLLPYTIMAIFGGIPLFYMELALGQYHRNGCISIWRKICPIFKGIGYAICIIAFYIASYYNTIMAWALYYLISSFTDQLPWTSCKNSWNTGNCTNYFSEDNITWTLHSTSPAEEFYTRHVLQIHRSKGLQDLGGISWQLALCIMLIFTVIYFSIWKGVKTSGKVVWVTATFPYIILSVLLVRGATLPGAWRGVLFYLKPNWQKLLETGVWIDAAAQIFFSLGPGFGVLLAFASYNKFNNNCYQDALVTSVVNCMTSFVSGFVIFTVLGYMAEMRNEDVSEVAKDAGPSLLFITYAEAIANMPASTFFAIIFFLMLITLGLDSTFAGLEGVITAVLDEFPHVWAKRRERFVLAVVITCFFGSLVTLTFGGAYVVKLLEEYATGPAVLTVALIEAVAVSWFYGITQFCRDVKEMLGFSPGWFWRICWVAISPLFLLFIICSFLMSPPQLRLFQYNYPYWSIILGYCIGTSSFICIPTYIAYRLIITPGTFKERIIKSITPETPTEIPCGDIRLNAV
- method-description: radioligand uptake inhibition assay ([3H]5HT)
- experimental-setup: HEK293 stably expressing YhSERT; 100 nM [3H]5HT; mean and SD, N = 3-6; read-out: IC50, uptake inhibition at SERT (YhSERT)
- Method: 1. Biological characterization 1.1. Experimental methods Buffer and solution compositions (in mM) are as follows: Krebs-HEPES buffer (KHB): 120 NaCl, 3 KCl, 2 CaCl2, 2 MgCl2, 20 glucose, 10 HEPES NaOH, pH = 7.3 – 7.4. […] 10 mM glucose, 1.25 mM NaH2PO4, pH = 7.4 (oxygenated with 95% O2, 5% CO2). […] The KHB was aspirated immediately. […] Non-specific uptake was determined in the presence of 30 µM paroxetine (for YhSERT), 50 µM GBR12909 (for YhDAT and hNET), or 100 µM decynium-22 (for YhOCT3). […]
pIC50: −log10 of the molar value.
quantity-kind: pIC50

A = CCN(CC)c1ccc(-c2cc[n+]3c(-c4ccccc4)c(N4CCCC4)n(CCCCCCC(=O)NCc4ccc5c(c4)CO[C@@]5(CCCN(C)C)c4ccc(F)cc4)c3c2)cc1 [PYR-C6-CIT, PyrAte-C6-(S)-citalopram]
B = CCN(CC)c1ccc(-c2cc[n+]3c(-c4ccccc4)c(N4CCCC4)n(CCCC(=O)NCc4ccc5c(c4)CO[C@@]5(CCCN(C)C)c4ccc(F)cc4)c3c2)cc1 [PYR-C3-CIT, PyrAte-C3-(S)-citalopram]
Inquiry: Between A and B , which one shows the smaller pIC50 number? Write down the label of the entry you select.
Reply text: A
(A: 6.08, B: 6.40)
